Consider the following compounds; for each one, report its IC50.
target: recombinant HIV reverse transcriptase (HIV RTR) (Human immunodeficiency virus type 1 group M subtype B, UniProt P04585); construct: recombinant HIV reverse transcriptase; test: Reverse Transcriptase Assay (incorporation of tritiated deoxyguanosine monophosphate into acid-precipitable cDNA); conditions: poly r(C).oligo d(G)12-18 template, dGTP at about Km, 37° C., 45 minutes; read-out: calculated IC50

The compound listed as Cc1[nH]c(=O)c(CCc2nc3ccccc3o2)cc1C(C)O (racemic) [Compound (I)] shows IC50 equal to ~18.7 µM

The compound listed as CCc1cc(CCc2nc3ccccc3o2)c(=O)[nH]c1CO [Compound (II)] shows IC50 equal to ~0.044 µM
